B1: Far upstream element-binding protein 1, residues 184 to 257; numbered along this chain, Q96AE4 (parent)
chain: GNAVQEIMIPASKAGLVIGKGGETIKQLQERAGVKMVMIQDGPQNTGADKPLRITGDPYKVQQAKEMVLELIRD

# Variants of: B1
# procedure.text: abundance fitness (aPCA) (normalised: wild type 0, dead -1); higher = more abundant; growth selection in yeast, the domain comes from the species named
# run.parameters: Homo sapiens
Listed below: abundance fitness values for each entry.
Provide a numeric answer; units are not to be included.

For L71Q , what is its reported abundance fitness?
-0.082

For I72N , what is its reported abundance fitness?
-0.398

Requested field: abundance fitness. Item: G42S
0.009

Would you kindly share the measured abundance fitness for Q27H ?
-0.008

Consider the variant V68N and give its measured abundance fitness.
-0.385

What value of abundance fitness has been recorded for this entry: T46F
-0.085

# input variant: D49Q ; wanted: its abundance fitness
-0.096

What value of measured abundance fitness is listed for I54A ?
-0.807

Recorded values, source the Human Domainome abundance scans (Beltran et al. 2025).
